Provide the reported log10 C. albicans (MIC) of each item.
# Tested on: Candida albicans NBRC1270
# assay.method.text: In vitro anti-Candida activity test
# Type: cell-based
# test.context: Table 23, 35° C. for 24 hr, 80% or more inhibition, unit inferred
Base-10 log of C. albicans (MIC), unit ng/mL.

Report log10 C. albicans (MIC), nothing else, for this compound: N#C/C(=C1/SCC(c2ncc(NC(=O)OCC3CC3)cc2F)S1)n1cncn1 (racemic)
0.70

Report log10 C. albicans (MIC), nothing else, for this compound: N#C/C(=C1/SCC(c2ncc(NC(=O)OCc3ncc(F)cc3F)cc2Cl)S1)n1cncn1 (racemic)
1.00

Report log10 C. albicans (MIC), nothing else, for this compound: N#C/C(=C1/SCC(c2ncc(NC(=O)OCc3ccc(F)nc3)cc2Cl)S1)n1cncn1 (centres unmarked)
1.00

Report log10 C. albicans (MIC), nothing else, for this compound: N#C/C(=C1/SCC(c2ncc(NC(=O)OCc3cccc(F)c3)cc2Cl)S1)n1cncn1 (racemic)
0.40

Report log10 C. albicans (MIC), nothing else, for this compound: N#C/C(=C1/SCC(c2ncc(NC(=O)OCC3CCC3)cc2Cl)S1)n1cncn1 (racemic)
0.40

Report log10 C. albicans (MIC), nothing else, for this compound: N#C/C(=C1/SCC(c2ncc(NC(=O)OCC3CC3)cc2Cl)S1)n1cncn1 (racemic)
0.10

Report log10 C. albicans (MIC), nothing else, for this compound: "N#C/C(=C1/SC[C@@H](c2ncc(NC(=O)OCC3CC3)cc2Cl)S1)n1cncn1"
-0.20

Report log10 C. albicans (MIC), nothing else, for this compound: CCCOC(=O)Nc1cnc(C2CS/C(=C(/C#N)n3cncn3)S2)c(Cl)c1 (racemic)
0.70

====

Trichophyton rubrum NBRC6203 data, read-out MIC
Give the value in µg/mL but do not write µg/mL after it.

Name the value of MIC reported for COC(=O)Nc1cnc(C2CS/C(=C(/C#N)n3ccnc3)S2)c(Cl)c1 (centres unmarked) when tested on Trichophyton rubrum NBRC6203.
0.01

Name the value of MIC reported for CCOC(=O)Nc1cnc(C2CS/C(=C(/C#N)n3cncn3)S2)c(F)c1 (centres unmarked) when tested on Trichophyton rubrum NBRC6203.
0.01

Name the value of MIC reported for CCCC1CC(c2cnc(C3CS/C(=C(/C#N)n4ccnc4)S3)c(Cl)c2)=NO1 (centres unmarked) when tested on Trichophyton rubrum NBRC6203.
0.01

====

# System: Candida albicans NBRC1270
# assay.method.text: In vitro anti-Candida activity test
# Assay type: cell-based
# test.context: Table 23, 35° C. for 24 hr, 80% or more inhibition, unit inferred
experimental.readout: log10 C. albicans (MIC) (log10 of the value in ng/mL)
Base-10 log of C. albicans (MIC), unit ng/mL.

Report log10 C. albicans (MIC), nothing else, for this compound: N#C/C(=C1/SCC(c2ncc(NC(=O)OCC3CC(F)(F)C3)cc2Cl)S1)n1cncn1 (racemic) [compound 107]
0.70

Report log10 C. albicans (MIC), nothing else, for this compound: CC(C)COC(=O)Nc1cnc(C2CS/C(=C(/C#N)n3cncn3)S2)c(Cl)c1 (racemic) [compound 83]
0.70

Report log10 C. albicans (MIC), nothing else, for this compound: N#C/C(=C1/SCC(c2ncc(NC(=O)OCCCCl)cc2Cl)S1)n1ccnc1 (centres unmarked) [compound 67]
0.40

Report log10 C. albicans (MIC), nothing else, for this compound: N#C/C(=C1/SCC(c2ncc(NC(=O)OCC3CC3(F)F)cc2Cl)S1)n1cncn1 (racemic) [compound 96]
0.70

Report log10 C. albicans (MIC), nothing else, for this compound: N#C/C(=C1/SCC(c2ncc(NC(=O)OCCCl)cc2Cl)S1)n1ccnc1 (centres unmarked) [compound 66]
0.70

Report log10 C. albicans (MIC), nothing else, for this compound: N#C/C(=C1/SCC(c2ncc(NC(=O)OCc3ccc(F)cn3)cc2Cl)S1)n1cncn1 (centres unmarked) [compound 73]
1.00

Report log10 C. albicans (MIC), nothing else, for this compound: N#C/C(=C1/SCC(c2ncc(COC3CCCCO3)cc2Cl)S1)n1ccnc1 (centres unmarked) [compound 28]
1.00

Report log10 C. albicans (MIC), nothing else, for this compound: N#C/C(=C1/SCC(c2ncc(NC(=O)OCc3ccccc3F)cc2Cl)S1)n1cncn1 (racemic) [compound 99]
0.40

Report log10 C. albicans (MIC), nothing else, for this compound: N#C/C(=C1/SC[C@@H](c2ncc(NC(=O)OCc3ccccc3)cc2F)S1)n1cncn1 [compound 106]
0.10

Report log10 C. albicans (MIC), nothing else, for this compound: CCCOC(=O)Nc1cnc([C@@H]2CS/C(=C(/C#N)n3cncn3)S2)c(Cl)c1 [compound 94]
0.40

Report log10 C. albicans (MIC), nothing else, for this compound: N#C/C(=C1/SC[C@@H](c2ncc(NC(=O)OCc3ccccc3)cc2Cl)S1)n1cncn1 [compound 100]
-0.20

Report log10 C. albicans (MIC), nothing else, for this compound: CCCOC(=O)Nc1cnc([C@@H]2CS/C(=C(/C#N)n3cncn3)S2)c(F)c1 [compound 110]
1.00

Report log10 C. albicans (MIC), nothing else, for this compound: CCOC(=O)Nc1cnc([C@@H]2CS/C(=C(/C#N)n3cncn3)S2)c(Cl)c1 [compound 79]
0.70

Report log10 C. albicans (MIC), nothing else, for this compound: N#C/C(=C1/SCC(c2ncc(NC(=O)OCc3ccc(F)cc3)cc2Cl)S1)n1cncn1 (racemic) [compound 89]
0.40

Source: patent US20250197384A1
